Values were extracted from ChEMBL document CHEMBL1201862.

System: MDA-N
Assay: NCI tumour cell line growth inhibition, 48 h
The source made the active and inactive calls. Cut-off read from the data, not from the text of the source: active = GI50 up to about 1.1 µM and inactive = higher.
For each record, write down the corresponding GI50.

Per the reported MDA-N data, `CCOC(=O)/C=C(/C)Nc1nc2c(c(C(=O)OC)c1C#N)CCCC2` has GI50 of > 100 µM (inactive)

Per the reported MDA-N data, CCC1CC2CN3CCc4c([nH]c5c(-c6c(OC)ccc7c8c([nH]c67)[C@]6(C(=O)OC)CC7CC(CC)C6N(CC8)C7)c(O)ccc45)[C@](C(=O)OC)(C2)C13 (stereo not given in full) has GI50 of 12.2 µM (inactive)

Per the reported MDA-N data, `Clc1ccc(NCc2nnc(CCCCCCCCc3nnc(CNc4ccc(Cl)cc4)o3)o2)cc1` has GI50 of > 100 µM (inactive)

Per the reported MDA-N data, `C=C1CN(Cc2ccccc2)[C@@H]2CCCCC[C@H](C#N)[C@H]12` has GI50 of > 100 µM (inactive)

Per the reported MDA-N data, `Nc1ccc(-c2nc3ccc(F)cc3s2)cc1I` has GI50 of > 100 µM (inactive)
